test system: HL-60; test: NCI tumour cell line growth inhibition, 48 h
Activity calls are given as the source filed them. Cut-off read from the data, not from the text of the source: active = GI50 up to about 1.1 µM and inactive = higher.
Labels: active, inactive

MOLECULE	GROUP LABEL
COc1cc([C@@H]2c3cc4c(cc3[C@@H](Nc3ccc(Cl)cc3C(=O)c3ccccc3Cl)[C@H]3COC(=O)[C@H]23)OCO4)cc(OC)c1OC	active
Oc1cccc2cccnc12	active
CCc1c(Cc2[nH]c(Cc3[nH]c(C=O)c(C)c3CC)c(CC)c2CC)[nH]c(C=O)c1C	inactive
COc1ccc(NC2Oc3cc4c(cc3C(c3cc(OC)c(O)c(OC)c3)C2C)OCO4)cc1 (centres undefined)	inactive
O=C(c1ccc(Cl)cc1)N(C(=S)N1CCN(c2ccccn2)CC1)C1CCCCC1	inactive
CC1CCC(=O)C(C(O)CC2CC(=O)N(c3ccccc3)C(=O)C2)C1 (centres undefined)	inactive
Cc1n[nH]c(=O)n1/N=C\CC/C=N\n1c(C)n[nH]c1=O	inactive
CC(=O)C1(/N=N/c2ccc(S(N)(=O)=O)cc2)CCOC1=O (centres undefined)	inactive
Cn1nc(-c2ccccc2)nc1[N+](=O)[O-]	inactive
COc1cc(/C=C2/C(=O)NC(Cc3cc(OC)c(OC)c(C)c3OC)C(=O)N2Cc2ccccc2)c(OC)c(C)c1OC (centres undefined)	inactive
COC(=O)/C=c1\s/c(=C\C(=O)OC)c2ccccc12	inactive
CCNCCCCNCC	inactive
CC(C)[Si]1(C(C)C)OCC2OC(n3c(C(=O)c4ccccc4)cc(=O)[nH]c3=O)CC2O[Si](C(C)C)(C(C)C)O1 (centres undefined)	inactive
Cc1ccc(S(=O)(=O)NC2(C=O)CCCC3CCCCC32)cc1 (centres undefined)	inactive
C[As](C)SCC(NC(=O)CCC(N)C(=O)O)C(=O)NCC(=O)O.c1ccncc1 (centres undefined)	active
CCN(N=O)C1C2(CCCC2)NC(=O)C12CCCC2 (centres undefined)	inactive
O=C1NC2C(=CC(O)C(O)C2O)c2cc3c(cc21)OCO3 (centres undefined)	active
COP(=O)(CC(=O)C1OC(OCc2ccccc2)C(OCc2ccccc2)C(OCc2ccccc2)C1OCc1ccccc1)OC (centres undefined)	inactive
CC(=O)N1C2=CCCC2(C)c2ccccc21 (centres undefined)	inactive
COC1OC(C)C(O)CC1OS(=O)(=O)c1ccc(C)cc1 (centres undefined)	inactive
C=C1C2CC[C@@](C)(O)C2[C@H]2OC(=O)C(=C)[C@@H]2C[C@H]1O (some centres undefined)	inactive
O=C(NS(=O)(=O)OCC(Cl)(Cl)Cl)SCCC(F)(F)C(F)(F)C(F)(F)C(F)(F)C(F)(F)C(F)(F)F	inactive
COC(=O)/C=C1/OC(c2ccccc2)=CC1=O	inactive
CCC(Sc1cc(Cl)c(C)cc1S(=O)(=O)Nc1nc(N)nc(N(C)C)n1)C(=O)O (centres undefined)	inactive
COc1cc(/N=C\N(C)C)c2ncccc2c1	inactive
COc1nc(N=P(c2ccccc2)(c2ccccc2)c2ccccc2)cc(=O)[nH]1	inactive
Cc1ccc(N2CN3OC(=O)N(c4ccccc4)[C@@]3(c3ccccc3)C2)cc1	inactive
COC(=O)C(/C(=N/N)C(=O)Nc1cc(Cl)ccc1Cl)c1nc2ccc([N+](=O)[O-])cc2nc1O (centres undefined)	inactive
COC(=O)CCc1cc(O)c2c(c1)C(C(=O)OC)C(c1ccc(O)c(O)c1)O2 (centres undefined)	inactive
